system: CCRIS mutagenicity, Ames/micronucleus/aberration tests; test: CCRIS mutagenicity studies; conditions: Test System: AMES SALMONELLA TYPHIMURIUM; Strain/Indicator: TA100; Metabolic Activation: RAT, LIVER, S-9, AROCLOR 1254; Method: STANDARD PLATE
The source made the active and inactive calls. The rule behind the calls is not given here.
Classes used: active, inactive

{"smiles record": "C=CCc1ccc(O)c(OC)c1", "assay target": "CCRIS mutagenicity, Ames/micronucleus/aberration tests", "classification": "inactive"}
{"smiles record": "Cc1ccc2c(c1[N+](=O)[O-])C(=O)c1ccccc1C2=O", "assay target": "CCRIS mutagenicity, Ames/micronucleus/aberration tests", "classification": "active"}
{"smiles record": "Cc1nc2c(c3[nH]c4ccccc4c13)C(=O)C=CC2=O", "assay target": "CCRIS mutagenicity, Ames/micronucleus/aberration tests", "classification": "inactive"}
{"smiles record": "O=C(CO)N(O)c1ccc(Cl)cc1", "assay target": "CCRIS mutagenicity, Ames/micronucleus/aberration tests", "classification": "inactive"}
{"smiles record": "CNCCN(Cc1ccc(OC)cc1)c1ccccn1", "assay target": "CCRIS mutagenicity, Ames/micronucleus/aberration tests", "classification": "inactive"}
{"smiles record": "C#C[C@]1(OC(C)=O)CC[C@H]2[C@@H]3CCC4=CC(=O)CC[C@@H]4[C@H]3CC[C@@]21C", "assay target": "CCRIS mutagenicity, Ames/micronucleus/aberration tests", "classification": "inactive"}
{"smiles record": "BrC(Br)C(Br)Br", "assay target": "CCRIS mutagenicity, Ames/micronucleus/aberration tests", "classification": "active"}
{"smiles record": "C=C(C)C(=O)OCC(CC)(COC(=O)C(=C)C)COC(=O)C(=C)C", "assay target": "CCRIS mutagenicity, Ames/micronucleus/aberration tests", "classification": "inactive"}
{"smiles record": "CC1=CC(=O)c2ccccc2C1=O", "assay target": "CCRIS mutagenicity, Ames/micronucleus/aberration tests", "classification": "inactive"}
{"smiles record": "CCOC(=O)c1[nH]c2ccccc2c1N=Cc1ccc(O)cc1", "assay target": "CCRIS mutagenicity, Ames/micronucleus/aberration tests", "classification": "inactive"}
{"smiles record": "CCCC[C@@H](C)[C@@H](OC(=O)C[C@@H](CC(=O)O)C(=O)O)[C@H](C[C@@H](C)C[C@H](O)CCCC[C@@H](O)C[C@H](O)[C@H](C)N)OC(=O)C[C@@H](CC(=O)O)C(=O)O", "assay target": "CCRIS mutagenicity, Ames/micronucleus/aberration tests", "classification": "inactive"}
{"smiles record": "CC(C)(C)N(CCO)CCO", "assay target": "CCRIS mutagenicity, Ames/micronucleus/aberration tests", "classification": "inactive"}
{"smiles record": "NC(=O)CCC(=O)Nc1ccc(Cl)cc1", "assay target": "CCRIS mutagenicity, Ames/micronucleus/aberration tests", "classification": "inactive"}
{"smiles record": "c1ccc2c(c1)ccc1c3ccccc3ccc21", "assay target": "CCRIS mutagenicity, Ames/micronucleus/aberration tests", "classification": "active"}
{"smiles record": "O=[Si]=O", "assay target": "CCRIS mutagenicity, Ames/micronucleus/aberration tests", "classification": "inactive"}
{"smiles record": "O=C([O-])/C=C/C(=O)[O-].[Fe+2]", "assay target": "CCRIS mutagenicity, Ames/micronucleus/aberration tests", "classification": "inactive"}
{"smiles record": "Cc1nnc(NS(=O)(=O)c2ccc(N)cc2)s1", "assay target": "CCRIS mutagenicity, Ames/micronucleus/aberration tests", "classification": "inactive"}
{"smiles record": "CN(C)CCc1cc(O)ccc1CNc1ccccn1", "assay target": "CCRIS mutagenicity, Ames/micronucleus/aberration tests", "classification": "inactive"}
{"smiles record": "O=Cc1ccco1", "assay target": "CCRIS mutagenicity, Ames/micronucleus/aberration tests", "classification": "active"}
{"smiles record": "Cc1ccc2c(c1)Cc1cc(C)ccc1-2", "assay target": "CCRIS mutagenicity, Ames/micronucleus/aberration tests", "classification": "inactive"}
{"smiles record": "Nc1ccc(/C=C/C(=O)O)cc1", "assay target": "CCRIS mutagenicity, Ames/micronucleus/aberration tests", "classification": "inactive"}
{"smiles record": "c1ccc2c(c1)Cc1ccc3ccc4ccccc4c3c1-2", "assay target": "CCRIS mutagenicity, Ames/micronucleus/aberration tests", "classification": "inactive"}
{"smiles record": "Cc1ccc2c(ccc3[nH]c4ccc5ccccc5c4c32)c1", "assay target": "CCRIS mutagenicity, Ames/micronucleus/aberration tests", "classification": "active"}
{"smiles record": "O=C(CC(O)(CC(=O)OCCBr)C(=O)OCCBr)OCCBr", "assay target": "CCRIS mutagenicity, Ames/micronucleus/aberration tests", "classification": "active"}
{"smiles record": "N#CSCSC#N", "assay target": "CCRIS mutagenicity, Ames/micronucleus/aberration tests", "classification": "inactive"}
{"smiles record": "NC(=O)CCC(=O)Nc1cc(Cl)c(Cl)c(Cl)c1", "assay target": "CCRIS mutagenicity, Ames/micronucleus/aberration tests", "classification": "inactive"}
{"smiles record": "O=PO.O=PO.[Mn+2]", "assay target": "CCRIS mutagenicity, Ames/micronucleus/aberration tests", "classification": "inactive"}
